Value source: PubChem BioAssay AID1347418

# ASSAY_SYSTEM: Sulfhydryl oxidase 1 (Homo sapiens) (UniProt O00391)
# Sequence (O00391 whole entry, looked up): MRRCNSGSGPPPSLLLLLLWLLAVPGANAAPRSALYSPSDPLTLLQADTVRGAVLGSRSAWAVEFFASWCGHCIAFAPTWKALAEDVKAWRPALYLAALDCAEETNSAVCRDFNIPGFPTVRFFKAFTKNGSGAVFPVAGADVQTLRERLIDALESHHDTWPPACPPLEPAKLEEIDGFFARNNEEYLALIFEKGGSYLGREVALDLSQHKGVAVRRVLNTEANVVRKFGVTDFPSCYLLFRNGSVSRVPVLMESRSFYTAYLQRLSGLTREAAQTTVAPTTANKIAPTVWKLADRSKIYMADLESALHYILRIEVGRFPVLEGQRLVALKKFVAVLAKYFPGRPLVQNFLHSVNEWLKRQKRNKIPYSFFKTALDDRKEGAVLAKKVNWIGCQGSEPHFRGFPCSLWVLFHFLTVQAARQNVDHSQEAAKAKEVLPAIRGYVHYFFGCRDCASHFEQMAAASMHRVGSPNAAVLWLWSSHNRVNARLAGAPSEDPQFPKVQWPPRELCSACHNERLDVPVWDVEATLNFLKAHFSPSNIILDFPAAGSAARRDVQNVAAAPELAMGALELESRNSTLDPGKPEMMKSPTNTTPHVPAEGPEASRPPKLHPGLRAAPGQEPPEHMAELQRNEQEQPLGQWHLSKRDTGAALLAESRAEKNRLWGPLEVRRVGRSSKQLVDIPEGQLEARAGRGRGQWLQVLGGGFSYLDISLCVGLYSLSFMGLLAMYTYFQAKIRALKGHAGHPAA
# ASSAY_PROTOCOL: QSOX1 enzyme inhibitors, primary screen, biochemical, ROS-Glo H2O2 luminescence, HTS (AID 1347418)
# CONDITION_NOTES: recombinant QSOX1, ROS-Glo H2O2 luminescence; at 12.5 µM; hits give high values; active = any value above zero
Out of some 1,300 compounds screened, about 750 (58%) were called active. This is one part of the list.
Thanks in advance; please answer with one of these: active, inactive

| MOLECULE | CLASS_NAME |
| --- | --- |
| COC(=O)[C@@H](N)Cc1ccc(O)c(O)c1 | active |
| COC(=O)C(N)Cc1ccc(Cl)cc1 (stereo not drawn) | active |
| COc1ccc2c(c1)c(CC(=O)O)c(C)n2C(=O)c1ccc(Cl)cc1 | active |
| NC(Cc1ccc(Cl)cc1)C(=O)O (stereo not drawn) | inactive |
| Nc1ccc(-c2nc3ccc(-c4nc5ccc(N)cc5[nH]4)cc3[nH]2)cc1 | active |
| N[C@@H](Cc1ccc(F)cc1)C(=O)O | active |
| NCCc1ccc(O)c(O)c1 | active |

Input: What was the test verdict on "COc1cccc(-c2cc(=O)c3ccccc3o2)c1N" ?
Output: active

* * *

# ASSAY_SYSTEM: Sulfhydryl oxidase 1 (Homo sapiens) (UniProt O00391)
# ASSAY_PROTOCOL: QSOX1 enzyme inhibitors, primary screen, biochemical, ROS-Glo H2O2 luminescence, HTS (AID 1347418)
# CONDITION_NOTES: recombinant QSOX1, ROS-Glo H2O2 luminescence; at 12.5 µM; hits give high values; active = any value above zero
In all, about 1,300 compounds went through this assay and about 750 (58%) were called active. This is one part of the list.
ASSAY_ENDPOINT: inhibition (%)
Give bare numbers, in %.

Here are 4 compounds together with their reported answers.
| CHEMICAL_STRUCTURE | inhibition [%] |
| --- | --- |
| CCN1/C(=C/C(C)=O)Sc2ccc(OC)cc21 | 10.3 |
| Fc1ccc(CN(C2=NCCN2)c2c(Cl)cccc2Cl)cc1 | 1.1 |
| Cc1cc(Cn2cnc3c2C[C@@H](C(=O)O)N(C(=O)C(c2ccccc2)c2ccccc2)C3)ccc1N | 0 |
| CC(=O)N1CCN(c2ccc(OC[C@H]3CO[C@](Cn4ccnc4)(c4ccc(Cl)cc4Cl)O3)cc2)CC1 | 9.3 |

Here's the next entry for you.
Input: Look up and report measured inhibition (Sulfhydryl oxidase 1 (Homo sapiens) (UniProt O00391)) for the following compound: "c1ccc(CN2CCC3(CCCc4ccccc43)CC2)cc1"
Output: 3.6

* * *

# ASSAY_SYSTEM: Sulfhydryl oxidase 1 (Homo sapiens) (UniProt O00391)
# ASSAY_PROTOCOL: QSOX1 enzyme inhibitors, primary screen, biochemical, ROS-Glo H2O2 luminescence, HTS (AID 1347418)
# CONDITION_NOTES: recombinant QSOX1, ROS-Glo H2O2 luminescence; at 12.5 µM; hits give high values; active = any value above zero
Out of some 1,300 compounds screened, about 750 (58%) were called active. Some of the results follow.
Thanks in advance; please answer with one of these: 1 (active), 0 (inactive)

Input: What was the test verdict on "N#C/C(=C\c1ccc(O)c(O)c1)C(=O)NCCc1ccccc1" ?
Output: 1

Input: What was the test verdict on "Cc1cc(C(C)(C)C)c(O)c(C)c1CC1=NCCN1" ?
Output: 0

Input: What was the test verdict on "CCN(CC)c1ncnc2c1ncn2[C@@H]1O[C@H](COP(=O)(O)OP(=O)(O)C(Br)(Br)P(=O)(O)O)[C@@H](O)[C@H]1O" ?
Output: 0

Input: What was the test verdict on "Cc1oncc1C(=O)Nc1ccc(C(F)(F)F)cc1" ?
Output: 1

Input: What was the test verdict on "CC(=O)CCCCn1c(=O)c2c(ncn2C)n(C)c1=O" ?
Output: 1
